Hello, the source for this data is PubChem BioAssay (NCI), in case you need it.

- EXPERIMENTAL_DETAILS: NCI Yeast Anticancer Drug Screen. Data for the rad50 strain (AID 155)
- EXPERIMENTAL_SETUP: S. cerevisiae rad50 strain growth inhibition; at 5.0 µM (retest, dose inferred, filed as 0.5); stronger effect = higher value
Compounds without any hit were thinned out: in the full panel of roughly 79,000, 15% have a hit.
# growth inhibition >= 20% gives true, anything below gives false

>>> class_label("COc1cc(Cc2n[nH]c(=S)n2-c2ccccc2)c(S(=O)(=O)N2CCOCC2)cc1OC")
"false"
>>> class_label("C=CCc1ccc(OC(=O)CCl)c(OC)c1")
"false"
>>> class_label("COC(=O)/C(C#N)=C1\\NC(=O)CC(c2ccccc2)C1C#N (centres undefined)")
"false"
>>> class_label("O=S1(=O)C(Br)=Cc2ccccc21")
"false"
>>> class_label("CCCC1CCCC1(CC(=O)c1ccccc1)C(=O)O (centres undefined)")
"true"
>>> class_label("ClC1c2ccccc2Cc2cccnc21 (centres undefined)")
"true"
>>> class_label("CN(Cc1cnc2nc(N)nc(N)c2n1)c1ccc(C(=O)NC(CCC(=O)O)C(=O)O)c(Cl)c1Cl (centres undefined)")
"false"
>>> class_label("COc1ccc2c(c1)S(=O)(=O)C(c1ccccc1)=CC2=O")
"true"
>>> class_label("COc1ccc(OC)c(C[P+](c2ccccc2)(c2ccccc2)c2ccccc2)c1")
"true"
>>> class_label("COC(=S)S")
"false"
>>> class_label("O=C(/C=C/c1ccc(O)cc1)c1cc(Cl)ccc1O")
"false"
>>> class_label("c1c2c(cc(-n3nnc4c3CCCCCC4)c1-n1nnc3c1CCCCCC3)CCCCCC2")
"true"
>>> class_label("CCOc1ccc2c(c1)n([O-])c1cc(Br)ccc1[n+]2=O")
"true"
>>> class_label("CCCNC(=O)N(CC(C)(C)C)S(=O)(=O)c1ccc(Cl)cc1")
"false"
>>> class_label("O=C1CCCC/C1=C\\c1ccc(Cl)c(Cl)c1")
"false"
>>> class_label("Clc1ccc(COC(CN2CCOCC2)c2ccccc2)c(Cl)c1 (centres undefined)")
"false"
>>> class_label("CC(C)(C)N1OC2(c3ccccc3)OC3N(C(C)(C)C)OC4(c5ccccc5)OC1C2(c1ccccc1)C34c1ccccc1 (centres undefined)")
"false"
>>> class_label("Cc1cc(N(CCCOS(C)(=O)=O)CCCOS(C)(=O)=O)ccc1C=Nc1cc(Br)c(O)c(Br)c1")
"false"
>>> class_label("Clc1nc(Cl)c(Cl)c(-c2ccccc2)n1")
"true"
>>> class_label("Cc1cc(C(=O)CBr)c(CN2C(=O)c3ccccc3C2=O)c(=O)n1C")
"false"
>>> class_label("Cc1c(-c2ccccc2)ccnc1/C=N/NC(=S)NCCc1ccccc1")
"true"
>>> class_label("O=C1CCCCC1Sc1ccc(Cl)cc1 (centres undefined)")
"false"
>>> class_label("CCCCN(CCCC)CC(O)Cc1cc2ccccc2c2ccccc12 (centres undefined)")
"false"
>>> class_label("c1ccc2c(c1)-c1cccc3cncc-2c13")
"true"
